Data origin, for the record: paper PMC10500007

pKd listing for selected binders.
biological target: αvβ1 (Homo sapiens); assay: BLI
Sequence (chain, as listed by the source, chain 1 of 2): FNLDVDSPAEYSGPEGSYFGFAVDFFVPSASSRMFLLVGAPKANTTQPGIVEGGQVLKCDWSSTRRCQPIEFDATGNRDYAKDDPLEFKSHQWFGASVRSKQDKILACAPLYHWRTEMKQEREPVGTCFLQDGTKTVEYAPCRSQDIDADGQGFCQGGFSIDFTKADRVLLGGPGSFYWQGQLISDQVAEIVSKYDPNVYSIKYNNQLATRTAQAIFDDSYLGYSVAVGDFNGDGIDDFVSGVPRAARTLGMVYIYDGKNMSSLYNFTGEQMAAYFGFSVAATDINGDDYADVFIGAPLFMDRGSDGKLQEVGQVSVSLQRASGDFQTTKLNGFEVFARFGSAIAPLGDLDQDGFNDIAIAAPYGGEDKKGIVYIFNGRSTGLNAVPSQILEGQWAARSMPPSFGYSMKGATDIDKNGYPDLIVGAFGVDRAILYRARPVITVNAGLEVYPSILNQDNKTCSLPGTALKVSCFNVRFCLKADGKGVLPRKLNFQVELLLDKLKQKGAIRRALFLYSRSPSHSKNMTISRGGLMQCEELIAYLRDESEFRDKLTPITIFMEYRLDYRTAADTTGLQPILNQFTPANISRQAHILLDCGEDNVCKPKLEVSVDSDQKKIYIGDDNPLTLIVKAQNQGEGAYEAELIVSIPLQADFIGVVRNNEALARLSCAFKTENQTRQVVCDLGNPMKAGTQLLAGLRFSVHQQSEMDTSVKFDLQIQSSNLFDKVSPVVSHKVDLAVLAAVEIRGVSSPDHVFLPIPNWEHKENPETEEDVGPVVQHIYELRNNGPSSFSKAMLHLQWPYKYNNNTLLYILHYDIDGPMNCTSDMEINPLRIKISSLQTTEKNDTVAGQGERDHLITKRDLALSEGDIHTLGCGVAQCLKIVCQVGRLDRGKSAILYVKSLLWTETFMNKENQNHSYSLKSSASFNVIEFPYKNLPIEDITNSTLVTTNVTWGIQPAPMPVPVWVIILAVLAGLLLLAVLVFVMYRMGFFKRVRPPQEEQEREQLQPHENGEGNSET
Sequence (chain, as listed by the source, chain 2 of 2): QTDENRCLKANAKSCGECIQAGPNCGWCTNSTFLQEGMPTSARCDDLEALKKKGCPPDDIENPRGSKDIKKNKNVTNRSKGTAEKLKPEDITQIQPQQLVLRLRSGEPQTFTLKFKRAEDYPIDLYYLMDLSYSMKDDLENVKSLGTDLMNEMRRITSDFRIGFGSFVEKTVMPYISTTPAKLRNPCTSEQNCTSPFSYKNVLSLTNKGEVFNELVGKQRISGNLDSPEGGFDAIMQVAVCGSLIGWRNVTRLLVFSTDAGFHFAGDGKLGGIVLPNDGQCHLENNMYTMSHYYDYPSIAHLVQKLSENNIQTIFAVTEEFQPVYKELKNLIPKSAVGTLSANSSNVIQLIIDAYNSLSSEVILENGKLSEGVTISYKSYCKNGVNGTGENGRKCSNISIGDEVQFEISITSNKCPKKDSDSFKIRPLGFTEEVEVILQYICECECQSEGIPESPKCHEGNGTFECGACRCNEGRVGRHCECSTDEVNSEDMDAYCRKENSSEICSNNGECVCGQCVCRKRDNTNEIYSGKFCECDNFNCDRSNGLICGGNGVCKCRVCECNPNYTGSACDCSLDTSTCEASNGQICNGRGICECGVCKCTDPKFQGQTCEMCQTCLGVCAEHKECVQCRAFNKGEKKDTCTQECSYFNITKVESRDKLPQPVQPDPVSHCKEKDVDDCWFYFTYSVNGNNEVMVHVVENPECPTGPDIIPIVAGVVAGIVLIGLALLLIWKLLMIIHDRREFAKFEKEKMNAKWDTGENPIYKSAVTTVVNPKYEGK
pKd: −log10 of the molar value.

INSERT INTO measurements (binder, metric, test_value) VALUES
  ('B8_BP-LATY (designed binder, full-length mature chains taken as on K562 cells; soluble ectodomain possible for BLI; divalent cations, glycosylated) TKCVVRFNFRGDLATYALKAVKDHLKKEGPHWNITTHNDDEVYLVVRGIHESDAKRIAKWVESTIPGISVETQCD', 'pKd', '< 6.00');

Now for a further binder.
Q) Supply recorded pKd for B6_BP_dslf (designed binder, full-length mature chains taken as on K562 cells; soluble ectodomain possible for BLI; divalent cations, glycosylated) TKCVVRFVFRGDLAELMLRAVKDHLKKEGPHWNITSTNNGKELVVRGIHESDAKRIAKWVEKRFPRVHTETQCD here.
A) < 6.70
